Literature-derived Ki for Retinoic acid receptor gamma (Homo sapiens) follows.
// NB: equality with 200 nM counts as not met; only Ki strictly below is met

The following compounds have reported results that may help.
C=C(c1ccc(C(=O)O)cc1)c1ccc2c(c1)C(C)(C)CCC2(C)C: not met
CC1(C)CCC(C)(C)c2cc(C3COc4cc(C(=O)O)ccc4C3)ccc21 (centres undefined): not met

Item O=C(O)c1ccc(/C=C/c2ccc(O)c(C34CC5CC(CC(C5)C3)C4)c2)cc1 : Ki beneath 200 nM, strictly?
met

Ki under 200 nM? Item: CC1(C)CCOc2ccc(-c3ccc4cc(C(=O)O)ccc4c3)cc21
not met

Does the reported Ki of CC1=C(/C=C/C(C)=C/C=C/C(C)=C/C(=O)Nc2ccc(O[C@@H]3O[C@@H](C(=O)O)[C@@H](O)[C@H](O)[C@@H]3O)cc2)C(C)(C)CCC1 stay below 200 nM?
not met

* * *

pKi: −log10 of the molar value.
Compiled literature pKi, tested on Retinoic acid receptor gamma (Homo sapiens, UniProt P13631).
The label depends only on pKi: 1 if it is at least 7, -1 if it is smaller.

COc1ccc(/C(C)=C/c2ccc(C(=O)O)cc2)cc1C1(C)CCCCC1: 1
CC(/C=C/[C@H]1CCC[C@@H]1c1ccc2c(c1)C(C)(C)CCC2(C)C)=C\C(=O)O: -1
COc1ccc(/C(C)=C/c2ccc(C(=O)O)cc2)cc1C(C)(C)C: 1
CC1=C(/C=C/C(C)=C/C=C/C(C)=C/C(=O)Cc2ccc(O)cc2)C(C)(C)CCC1: -1
C=C1C[C@@H](/C=C/C(C)=C/C(=O)O)[C@@H](c2ccc3c(c2)C(C)(C)CCC3(C)C)C1: -1

Could you tell me if the measured pKi of CC1(C)CCC(C)(C)c2cc(C3=Cc4ccc(C(=O)O)cc4OC3)ccc21 reaches 7 or more?
1

Reported pKi at or above 7? CC(/C=C/[C@]1(C)CCCC1c1ccc2c(c1)C(C)(C)CCC2(C)C)=C\C(=O)O (single isomer, unassigned)
-1

Kindly determine if pKi recorded for CC(/C=C/C1=C(c2cc3c(cc2C)C(C)(C)CCC3(C)C)CCC1)=C\C(=O)O is above or exactly 7.
-1

Please tell me: is the molecule CC(C)(C)c1cc(C2=Cc3ccc(C(=O)O)cc3OC2)ccc1O at or over 7 in terms of pKi?
-1

Reported pKi reaches at least 7 for C/C(=C/C=C/C(C)=C/C(=O)O)c1cc(C(C)(C)C)cc(C(C)(C)C)c1OCC(F)(F)F ?
-1

Quick check, pKi >= 7? O=C(O)c1ccc2cc(-c3ccc(CO)c(C45CC6CC(CC(C6)C4)C5)c3)ccc2c1
-1

Identify whether the reported pKi of the following molecule is 7 or greater: CC(/C=C/C1(c2ccc3c(c2)C(C)(C)CCC3(C)C)CCCC1)=C\C(=O)O
-1

* * *

Target protein (sequence): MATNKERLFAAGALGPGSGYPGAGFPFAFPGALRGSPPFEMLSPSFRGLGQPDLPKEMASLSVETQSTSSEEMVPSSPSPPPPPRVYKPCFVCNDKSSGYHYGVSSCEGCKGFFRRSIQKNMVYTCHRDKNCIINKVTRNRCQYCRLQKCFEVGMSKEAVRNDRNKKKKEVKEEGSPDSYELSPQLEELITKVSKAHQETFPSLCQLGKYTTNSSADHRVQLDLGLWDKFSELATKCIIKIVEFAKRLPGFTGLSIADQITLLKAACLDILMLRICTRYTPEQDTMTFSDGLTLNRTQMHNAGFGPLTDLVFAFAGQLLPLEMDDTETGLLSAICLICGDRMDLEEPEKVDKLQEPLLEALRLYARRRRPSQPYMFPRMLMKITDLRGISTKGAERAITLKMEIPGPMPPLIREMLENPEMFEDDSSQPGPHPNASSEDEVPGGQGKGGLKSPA
Please find below Ki data on the protein given by its sequence compiled from the literature.

Items follow; give Ki for each.
1. CC(C)(C)c1cc(-c2ccc3cc(C(=O)O)ccc3c2)ccc1O
2. COc1ccc(C2=Cc3ccc(C(=O)O)cc3OC2)cc1C12C[C@H]3C[C@@H](C1)C[C@@H](C2)C3
3. C/C(=C/C(F)=C/C(C)=C/C(=O)O)c1cc(C(C)(C)C)cc(C(C)(C)C)c1OCC(F)F
4. CCCOc1c(\C(C)=C/C=C/C(C)=C/C(=O)O)cc(C(C)C)cc1C(C)C

1: 200 nM; 2: 174 nM; 3: > 10000 nM; 4: 10000 nM
